biological target: OGG1 (8-oxoguanine-DNA glycosylase) (Homo sapiens, UniProt O15527 1-345); test: MST; MST: 50 mM Tris-HCl pH 7.5, 50 mM KCl, 1 mM EDTA, 1 mM DTT, 7% glycerol, 25 C, 10 min, 0.5 uM DNA; authors call Kd values estimates only; conditions: protein: recombinant; label: 5'-FAM, 3'-BHQ1; G-quadruplex
Sequence (O15527 whole entry): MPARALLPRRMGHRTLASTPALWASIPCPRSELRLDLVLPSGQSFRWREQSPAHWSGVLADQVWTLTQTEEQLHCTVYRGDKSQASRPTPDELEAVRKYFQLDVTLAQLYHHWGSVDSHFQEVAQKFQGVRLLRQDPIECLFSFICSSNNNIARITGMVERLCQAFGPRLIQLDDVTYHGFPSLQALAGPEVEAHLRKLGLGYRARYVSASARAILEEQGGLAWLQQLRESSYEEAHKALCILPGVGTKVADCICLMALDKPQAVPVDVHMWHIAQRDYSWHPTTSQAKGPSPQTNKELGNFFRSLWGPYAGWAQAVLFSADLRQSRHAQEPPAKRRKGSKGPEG
value kind: Kd (µM)
One number for each entry, in µM.

Retrieve Kd measured for TTAGGGTTAGGGTTAGGGTTAGGGTT (structured_DNA, G17 = 8-oxoguanine) [Q4-oxoG] and print it.
1.2
